pIC50 by entry:
# System: 377384-186-R-J1-PDC complex spheroid viability
# Assay details: Anticancer human tumor 377384-186-R-J1-PDC patient-derived pancreatic carcinoma cell line growth inhibition [RAS]
# Particulars: curve of first compound; second compound 0.316 µM
pIC50 (log units): -log10 of the concentration in mol/L.

// below: answered molecules
molecule="Nc1ccn(C2OC(CO)C(O)C2(F)F)c(=O)n1 (centres undefined) + C=CC(=O)N1CCN(c2nc(OCC3CCCN3C)nc3c(F)c(-c4nc(N)cc(C)c4C(F)(F)F)c(Cl)cc23)C(C)C1" assay_system="377384-186-R-J1-PDC complex spheroid viability" test_value=8.14
molecule="CC(C)n1nc(-c2ccc3oc(N)nc3c2)c2c(N)ncnc21 + C=CC(=O)N1CCN(c2nc(OCC3CCCN3C)nc3c(F)c(-c4nc(N)cc(C)c4C(F)(F)F)c(Cl)cc23)C(C)C1" assay_system="377384-186-R-J1-PDC complex spheroid viability" test_value=7.90
molecule="CCc1c2c(nc3ccc(O)cc13)-c1cc3c(c(=O)n1C2)COC(=O)[C@]3(O)CC + C=CC(=O)N1CCN(c2nc(OCC3CCCN3C)nc3c(F)c(-c4nc(N)cc(C)c4C(F)(F)F)c(Cl)cc23)C(C)C1" assay_system="377384-186-R-J1-PDC complex spheroid viability" test_value=8.86

Now take the following molecule into account.
Query (molecule): CC1(C)CCC(Nc2ncc(C(F)(F)F)c(-c3c[nH]c4c(P(C)(C)=O)c(C#N)ccc34)n2)CN1 (centres undefined) + C=CC(=O)N1CCN(c2nc(OCC3CCCN3C)nc3c(F)c(-c4nc(N)cc(C)c4C(F)(F)F)c(Cl)cc23)C(C)C1 ; field requested: pIC50
8.50

----------
# System: 377384-186-R-J1-PDC complex spheroid viability
# Assay details: Anticancer human tumor 377384-186-R-J1-PDC cell line growth inhibition [RAS];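 further: spheroids exposed to compounds for seven days before readout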
# Particulars: second compound 0.00949 µM; first compound 1 µM; stronger effect = lower value
Recorded endpoint: viability, T/C

The cases that follow already have their viability, T/C on record.
molecule="CC1(O)CCCC1n1c(=O)c(C(F)F)cc2cnc(NC3CCN(S(C)(=O)=O)CC3)nc21 (configuration not stated) + CCn1c(-c2cc(N3CCN(C)CC3)cnc2C(C)OC)c2c3cc(ccc31)-c1csc(n1)CC(NC(=O)C1CC1C)C(=O)N1CCCC(N1)C(=O)OCC(C)(C)C2" recorded_endpoint="viability, T/C" test_value=4.95%
molecule="CC(C)NCC(C(=O)N1CCN(c2ncnc3c2C(C)CC3O)CC1)c1ccc(Cl)cc1 (configuration not stated) + CCn1c(-c2cccnc2C(C)OC)c2c3cc(ccc31)N1CCOC(CC(NC(=O)C(C(C)C)N(C)C(=O)C3(F)CCN(C(=O)C#CC(C)(C)N(C)C)CC3)C(=O)N3CCCC(N3)C(=O)OCC(C)(C)C2)C1" recorded_endpoint="viability, T/C" test_value=65.3%
molecule="C=CC(=O)Nc1cc(Nc2nccc(-c3cn(C)c4ccccc34)n2)c(OC)cc1N(C)CCN(C)C + CCn1c(-c2cc(N3CCN(C)CC3)cnc2C(C)OC)c2c3cc(ccc31)-c1csc(n1)CC(NC(=O)C1CC1C)C(=O)N1CCCC(N1)C(=O)OCC(C)(C)C2" recorded_endpoint="viability, T/C" test_value=1.78%
molecule="CCC(CC)c1cc(NC2CCC(N)C2)n2nccc2n1 (configuration not stated) + CCn1c(-c2cccnc2C(C)OC)c2c3cc(ccc31)N1CCOC(CC(NC(=O)C(C(C)C)N(C)C(=O)C3(F)CCN(C(=O)C#CC(C)(C)N(C)C)CC3)C(=O)N3CCCC(N3)C(=O)OCC(C)(C)C2)C1" recorded_endpoint="viability, T/C" test_value=82.3%

Give the measured viability, T/C of CCN1CCN(Cc2ccc(Nc3ncc(F)c(-c4cc(F)c5nc(C)n(C(C)C)c5c4)n3)nc2)CC1 + CCn1c(-c2cccnc2C(C)OC)c2c3cc(ccc31)N1CCOC(CC(NC(=O)C(C(C)C)N(C)C(=O)C3(F)CCN(C(=O)C#CC(C)(C)N(C)C)CC3)C(=O)N3CCCC(N3)C(=O)OCC(C)(C)C2)C1 .
43.2%

I would be grateful if you could share the reported viability, T/C for Nc1ccn(C2OC(CO)C(O)C2(F)F)c(=O)n1 (configuration not stated) + CCn1c(-c2cc(N3CCN(C)CC3)cnc2C(C)OC)c2c3cc(ccc31)-c1csc(n1)CC(NC(=O)C1CC1C)C(=O)N1CCCC(N1)C(=O)OCC(C)(C)C2 .
2.63%

Look up viability, T/C for this molecule: C=CC(=O)Nc1cc(Nc2nccc(-c3cn(C)c4ccccc34)n2)c(OC)cc1N(C)CCN(C)C + CCn1c(-c2cccnc2C(C)OC)c2c3cc(ccc31)N1CCOC(CC(NC(=O)C(C(C)C)N(C)C(=O)C3(F)CCN(C(=O)C#CC(C)(C)N(C)C)CC3)C(=O)N3CCCC(N3)C(=O)OCC(C)(C)C2)C1
42.6%
